Each entry below lists one item and its recorded IC50 value.
- Target or system: Neutrophil collagenase (Homo sapiens)
- Sequence (P22894 whole entry): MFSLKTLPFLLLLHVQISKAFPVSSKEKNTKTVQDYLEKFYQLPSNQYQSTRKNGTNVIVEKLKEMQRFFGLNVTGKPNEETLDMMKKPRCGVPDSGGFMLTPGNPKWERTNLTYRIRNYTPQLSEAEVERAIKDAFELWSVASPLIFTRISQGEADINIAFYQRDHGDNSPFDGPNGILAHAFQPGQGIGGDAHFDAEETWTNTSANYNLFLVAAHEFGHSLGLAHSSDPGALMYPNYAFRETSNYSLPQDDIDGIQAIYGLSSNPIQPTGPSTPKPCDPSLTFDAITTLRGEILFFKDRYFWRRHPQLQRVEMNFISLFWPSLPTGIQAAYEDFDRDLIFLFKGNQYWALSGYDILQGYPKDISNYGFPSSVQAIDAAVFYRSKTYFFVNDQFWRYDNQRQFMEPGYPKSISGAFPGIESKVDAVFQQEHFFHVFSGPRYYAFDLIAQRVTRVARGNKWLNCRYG
- Measurement notes: Inhibitory concentration against human matrix metalloprotease-8 (human neutrophil collagenase, MMP-8)
Numeric answer plus unit only.

| Compound | Experimental value |
| --- | --- |
| CNC(=O)c1ccc(Oc2ccc(S(=O)(=O)N3Cc4ccccc4CC3C(=O)O)cc2)cc1 (stereo not given) | 40 nM |
| COc1ccc(S(=O)(=O)N2Cc3cc(NC(=O)CCC(=O)O)ccc3CC2C(=O)NO)cc1 (stereo not given) | 40 nM |
| Nc1ccc2c(c1)CN(S(=O)(=O)c1ccc(-c3ccc(F)cc3)cc1)C(C(=O)NO)C2 (stereo not given) | 2 nM |
| CN(C)c1ccc(-c2ccc(S(=O)(=O)N3Cc4ccccc4CC3C(=O)NO)cc2)cc1 (stereo not given) | 2 nM |
| O=C(NO)C1Cc2ccccc2CN1S(=O)(=O)c1ccc(-c2ccccc2)cc1 (stereo not given) | 2 nM |
| CN(C)c1ccc(Oc2ccc(S(=O)(=O)N3Cc4ccccc4CC3C(=O)NO)cc2)cc1 (stereo not given) | 2 nM |
| O=C(O)C1Cc2ccccc2CN1S(=O)(=O)c1ccc(-n2nccn2)cc1 (stereo not given) | 90 nM |
| CN(C)c1cccc2c(S(=O)(=O)N3Cc4ccccc4CC3C(=O)NO)cccc12 (stereo not given) | 200 nM |

The compound listed as CSc1nccc(-c2ccc(S(=O)(=O)N3Cc4ccccc4CC3C(=O)O)s2)n1 (stereo not given) has a reported IC50 of 1000 nM

compound O=C(O)C1Cc2ccccc2CN1S(=O)(=O)CCc1ccc(-c2ccccc2)cc1 (stereo not given) , IC50 observed: 20 nM
